For each entry below, report its % R (resistance) value.
system: MSSA; test: In vitro MIC, 2010 surveillance isolates; format: cell-based; settings: Asia/Pac; Eucast breakpoints
Value expressed in %; do not type the unit.

Please look up its % R (resistance): `C[C@H]1COc2c(N3CCN(C)CC3)c(F)cc3c(=O)c(C(=O)O)cn1c23` 5.9

Please look up its % R (resistance): `CN(C)c1cc(NC(=O)CNC(C)(C)C)c(O)c2c1C[C@H]1C[C@H]3[C@H](N(C)C)C(O)=C(C(N)=O)C(=O)[C@@]3(O)C(O)=C1C2=O` 0

Please look up its % R (resistance): `CO/N=C(\C(=O)N[C@@H]1C(=O)N2C(C(=O)O)=C(CSc3nc(=O)c(=O)[nH]n3C)CS[C@H]12)c1csc(N)n1` 0

Please look up its % R (resistance): `C[C@H]1c2cccc(O)c2C(=O)C2=C(O)[C@]3(O)C(=O)C(C(N)=O)=C(O)[C@@H](N(C)C)[C@@H]3[C@@H](O)[C@@H]21` 1.7

Please look up its % R (resistance): `CN[C@H](CC(C)C)C(=O)N[C@H]1C(=O)N[C@@H](CC(N)=O)C(=O)N[C@H]2C(=O)N[C@H]3C(=O)N[C@H](C(=O)N[C@H](C(=O)O)c4cc(O)cc(O)c4-c4cc3ccc4O)[C@H](O)c3ccc(c(Cl)c3)Oc3cc2cc(c3O[C@@H]2O[C@H](CO)[C@@H](O)[C@H](O)[C@H]2O[C@H]2C[C@](C)(N)[C@H](O)[C@H](C)O2)Oc2ccc(cc2Cl)[C@H]1O` 0

###

tested on: E. coli ESBL+; test: In vitro MIC, 2010 surveillance isolates; format: cell-based, Escherichia coli; conditions: L. Amer; CLSI breakpoints
Doc: threshold 1% (exclusive). Items with % R (resistance) beneath it return 1; others return 0.

Bench note: check whether `C[C@H]1c2cccc(O)c2C(=O)C2=C(O)[C@]3(O)C(=O)C(C(N)=O)=C(O)[C@@H](N(C)C)[C@@H]3[C@@H](O)[C@@H]21` shows % R (resistance) below 1% 0

Bench note: check whether `C[C@@H](O)[C@H]1C(=O)N2C(C(=O)O)=C(SCCN=CN)C[C@H]12` shows % R (resistance) below 1% 1

Bench note: check whether `CN(C)c1cc(NC(=O)CNC(C)(C)C)c(O)c2c1C[C@H]1C[C@H]3[C@H](N(C)C)C(O)=C(C(N)=O)C(=O)[C@@]3(O)C(O)=C1C2=O` shows % R (resistance) below 1% 1

Bench note: check whether `CO/N=C(\C(=O)N[C@@H]1C(=O)N2C(C(=O)O)=C(CSc3nc(=O)c(=O)[nH]n3C)CS[C@H]12)c1csc(N)n1` shows % R (resistance) below 1% 0

Bench note: check whether `NCC[C@H](O)C(=O)N[C@@H]1C[C@H](N)[C@@H](O[C@H]2O[C@H](CN)[C@@H](O)[C@H](O)[C@H]2O)[C@H](O)[C@H]1O[C@H]1O[C@H](CO)[C@@H](O)[C@H](N)[C@H]1O` shows % R (resistance) below 1% 0

Bench note: check whether CO/N=C(\C(=O)N[C@@H]1C(=O)N2C(C(=O)[O-])=C(C[N+]3(C)CCCC3)CS[C@H]12)c1csc(N)n1 [Cefepime] shows % R (resistance) below 1% 0

Bench note: check whether `C[C@H]1COc2c(N3CCN(C)CC3)c(F)cc3c(=O)c(C(=O)O)cn1c23` shows % R (resistance) below 1% 0

Reference for the values: patent US10238670B2
